PROTOCOL: reduced SW480 viability measured with CellTiter-Glo, NPC library, primary (AID 1117343)
MEASUREMENT_PARAMETERS: CellTiter-Glo luminescence; at 20 µM (top of the series)
Grouping rule (viability decrease (inhibition)): c1 = under 10%, c2 = from 10% up to 50%, c3 = 50% and over

The following molecules have reported results that may help.
MOLECULE	LABEL
CC(C(=O)O)c1ccc2c(c1)[nH]c1ccc(Cl)cc12 (stereo not given)	c2
CCN(CC)CCNC(=O)c1cc(Br)c(N)cc1OC	c1
CC(C)COCC(CN(Cc1ccccc1)c1ccccc1)N1CCCC1 (stereo not given)	c3
CCCCC1(COC(=O)CCC(=O)O)C(=O)N(c2ccccc2)N(c2ccccc2)C1=O	c1
CC(C)(C(=O)c1cccnc1)c1cccnc1	c1

Task item: Which class holds Cc1ccc(NC(=O)c2ccc(CN3CCN(C)CC3)cc2)cc1Nc1nccc(-c2cccnc2)n1 ?
Reply: c3

Task item: Which class holds O=C1CCc2ccc(OCCCCN3CCN(c4cccc(Cl)c4Cl)CC3)cc2N1 ?
Reply: c3

Task item: Which class holds Cc1c(O)cccc1C(=O)N[C@@H](CSc1ccccc1)[C@H](O)CN1C[C@H]2CCCC[C@H]2C[C@H]1C(=O)NC(C)(C)C ?
Reply: c3

Task item: Which class holds O=C1OCCN1/N=C/c1ccc([N+](=O)[O-])o1 ?
Reply: c3

Task item: Which class holds CC(C)NNC(=O)c1ccncc1 ?
Reply: c2

Task item: Which class holds Cn1c([N+](=O)[O-])cnc1COC(N)=O ?
Reply: c1

Task item: Which class holds NC/C=C/C(=O)O ?
Reply: c2

====

EXPERIMENTAL_SYSTEM: Single-stranded DNA-binding protein (Escherichia coli (strain K12)) (UniProt P0AGE0)
PROTOCOL: SSB-ssDNA binding inhibitors – biochemical, fluorescence polarization, NIH Clinical Collection, counter-screen for HCV NS3 helicase inhibitor project (AID 743271)
MEASUREMENT_PARAMETERS: E. coli SSB-DNA binding, stronger effect = higher value, concentration not given here
Would you kindly list inhibition for each of these molecules?
Numbers only, in %.

Dear colleague, could you send me inhibition for each of the items below? Thanks.
1. OCc1cccnc1
2. Cc1ccnc2c1NC(=O)c1cccnc1N2C1CC1
3. CN1[C@@H]2CC[C@H]1CC(OC(=O)c1c[nH]c3ccccc13)C2 (stereo partly specified)
4. CN1CCN(c2c(F)cc3c(=O)c(C(=O)O)cn4c3c2SCC4)CC1
5. CN1CCN(CCCN2c3ccccc3Sc3ccc(Cl)cc32)CC1

Reply:
1. -1.18
2. -5.49
3. -3.95
4. -3.18
5. 9.14

====

Would you kindly list inhibition for each of these molecules?
PROTOCOL: blockers of polyQ-driven CASP3 activation – cell-based (AID 1583)
MEASUREMENT_PARAMETERS: polyglutamine-induced caspase-3 activation, cell assay; stronger effect = higher value; concentration not given here
The reply should consist of the numeric value with the unit placed after it.

MOLECULE	inhibition
CC(=O)Oc1cccc(O)c1	-9.3%

Dear colleague, could you send me inhibition for each of the items below? Thanks.
1. CN1CCOC(c2ccccc2)c2ccccc2C1 (configuration not stated)
2. CC1CCC(NC(=O)N(CCCl)N=O)CC1 (configuration not stated)
3. CO[C@@H]1[C@@H](OC(N)=O)[C@@H](O)[C@H](Oc2ccc3c(O)c(NC(=O)c4ccc(O)c(CC=C(C)C)c4)c(=O)oc3c2C)OC1(C)C
4. NC(Cc1ccc(Cl)cc1)C(=O)O (configuration not stated)

Reply:
1: 4.24%; 2: 13.6%; 3: -0.61%; 4: 2.04%

Dear colleague, could you send me inhibition for each of the items below? Thanks.
1. CC1(C)S[C@@H]2[C@H](NC(=O)C(C(=O)O)c3ccccc3)C(=O)N2[C@H]1C(=O)O (some centres not stated)
2. CCN(CC)C(=O)c1cccc(C)c1
3. Cn1c(=O)c2c(ncn2CC(O)CO)n(C)c1=O (configuration not stated)
4. O=C1CC2(CCCC2)CC(=O)N1CCCCN1CCN(c2ncccn2)CC1
5. NS(=O)(=O)c1cc2c(cc1Cl)NC(C(Cl)Cl)NS2(=O)=O (configuration not stated)

Reply:
1. 9.67%
2. 9.84%
3. -0.09%
4. -0.71%
5. 12.2%

Dear colleague, could you send me inhibition for each of the items below? Thanks.
1. CCN(CC)CCNC(=O)COc1ccc(OC)cc1
2. CC(C(=O)O)c1ccc(C(=O)c2cccs2)cc1 (configuration not stated)
3. CCCCOc1ccc(C(=O)CCN2CCCCC2)cc1

Reply:
1. 62%
2. 7.38%
3. -5.19%

====

PROTOCOL: blockers of polyQ-driven CASP3 activation – cell-based (AID 1583)
MEASUREMENT_PARAMETERS: polyglutamine-induced caspase-3 activation, cell assay; stronger effect = higher value; concentration not given here
Please mark satisfied if the recorded inhibition is equal to or greater than 10%, and not satisfied if it falls below.

MOLECULE	LABEL
CCn1cc(C(=O)O)c(=O)c2cc3c(cc21)OCO3	not satisfied
CC(=O)N[C@@H](CS)C(=O)O	not satisfied

Task item: Hi team, for Cc1ccc(C(C)C)cc2c(C)ccc1-2 , is the recorded inhibition at or above 10%?
Reply: not satisfied

Task item: Hi team, for Fc1ccc(C(c2ccc(F)cc2)N2CCN(C/C=C/c3ccccc3)CC2)cc1 , is the recorded inhibition at or above 10%?
Reply: satisfied

====

PROTOCOL: compounds altering viability of human ES cells (AID 493140);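 note: cells exposed to compounds for four days before counting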
MEASUREMENT_PARAMETERS: human embryonic stem cell survival screen; stronger effect = higher value
Please mark Yes if the recorded survival is equal to or greater than 5, and No if it falls below.

The following molecules have reported results that may help.
MOLECULE	LABEL
C/C=C(/C(=C/C)c1ccc(O)cc1)c1ccc(O)cc1	Yes
COC(=O)[C@H]1[C@H]2C[C@@H]3c4[nH]c5cc(OC)ccc5c4CCN3C[C@H]2C[C@@H](OC(=O)c2cc(OC)c(OC)c(OC)c2)[C@@H]1OC	Yes
O=C1C(O)=C(O)C(=O)C(O)=C1O	No
O=C1C(=O)c2ccccc2C(O)=C1C1CCC(c2ccc(Cl)cc2)CC1 (stereo unspecified)	Yes
C[N+](C)(C)CCOC(N)=O	No
CCCCC(CC)CN=C(N)NC(N)=NCCCCCCN=C(N)NC(N)=NCC(CC)CCCC (stereo unspecified)	No
CCOC(=O)C1=C[C@]2(CC)CCCN3CCc4c(n1c1ccccc41)[C@@H]32	Yes
CN1CCN(CCCN2c3ccccc3Sc3ccc(Cl)cc32)CC1	No

Note: attention shifts to another entry.
Task item: Hi team, for CN1CCN(C(c2ccccc2)c2ccccc2)CC1 , is the recorded survival at or above 5?
Reply: No

====

PROTOCOL: human hepatoma cell viability loss – ATP luminescence, cytotoxicity control for P. falciparum antimalarial project, primary screen (AID 2303);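 note: 0% = DMSO wells and 100% = digitonin-killed cells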
MEASUREMENT_PARAMETERS: HepG2 viability, 24-48 h, at 10 µM
The source made the active and inactive calls.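 How the source made its calls: active means inhibition above 50%; inactive means the rest.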
Return exactly one item of class 1 for active, class 0 for inactive

The following compounds have reported results that may help.
STRUCTURE_SMILES_STRING	LABEL
Cc1nc(N)nc(N)c1-c1ccc(Cl)c(Cl)c1	class 1
CCOc1ccc2nc3cc(N)ccc3c(N)c2c1	class 0
O=C(Nc1cccc(C2=NCCN2)c1)Nc1cccc(C2=NCCN2)c1	class 0

Task item: Check the results log: what was the call for CCN(CC)Cc1cc(Nc2ccnc3cc(Cl)ccc23)ccc1O ?
Reply: class 0

Task item: Check the results log: what was the call for CCCCCCCC/C=C\CCCCCCCC(=O)NCc1ccc(O)c(OC)c1 ?
Reply: class 0

====

PROTOCOL: growth inhibition, single agent or in combination, cell-based, chromothripsis tumors, cisplatin or BGB combos (AID 1671449);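 note: cells exposed for 96 hours; 0% = vehicle DMSO and 100% = killing by high DMSO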
MEASUREMENT_PARAMETERS: LFS_MB_P medulloblastoma cells, measured here: combination with cisplatin, at 0.5 µM, stronger effect = higher value
RESULT_TYPE: inhibition (%)
Numbers only, in %.

MOLECULE	RESULT_NUMBER
O=C(O)CCCCCCCC(=O)O	8.46

Dear colleague, could you send me inhibition for each of the items below? Thanks.
1. O=c1c(O)c(-c2ccc(O)c(O)c2)oc2cc(O)cc(O)c12
2. O=C(O)P(=O)(O)O
3. Nc1[nH]c(=O)ncc1F
4. CC(N)C12CC3CC(CC(C3)C1)C2 (centres undefined)
5. O=c1oc2c(O)c(O)cc3c(=O)oc4c(O)c(O)cc1c4c23
6. Cc1nc2ccc(CN(C)c3ccc(C(=O)N[C@@H](CCC(=O)O)C(=O)O)s3)cc2c(=O)[nH]1

Reply:
-24.2
-28.3
56.8
9.24
-13.4
-25.4

Dear colleague, could you send me inhibition for each of the items below? Thanks.
1. CN(C)c1ccc(C(=C2C=CC(=[N+](C)C)C=C2)c2ccc(N(C)C)cc2)cc1
2. CCN1CCN(c2cc3c(cc2F)c(=O)c(C(=O)O)cn3C2CC2)CC1

Reply:
[-17.8, -35.9]
